- Test system: SF-268
- test-details: NCI tumour cell line growth inhibition, 48 h
Activity calls are given as the source filed them. Rule as the data show it: active = GI50 up to about 1.1 µM and inactive = higher.
Parameter call: string, one of Yes for active, No for inactive

- compound: "CCN(CC)CCOC(NC(C)=O)(c1ccccc1)c1ccccc1"
  target-or-system: "SF-268"
  group-label: "No"
- compound: "Cc1cc(N)c2cc(NC(=O)Nc3ccc4nc(C)cc(N)c4c3)ccc2n1"
  target-or-system: "SF-268"
  group-label: "No"
- compound: "O=C(O)c1nc2ccc(Cl)cc2[nH]c1=O"
  target-or-system: "SF-268"
  group-label: "No"

[Q] Dear all, I need the recorded test outcome for N#CCCC1(CCC#N)CCCCCCC(CCC#N)(CCC#N)C(=O)C1=O , thank you.
[A] No

[Q] Please indicate how the test categorized O=C1C(=C/C=C2/SC(c3ccccc3)(c3ccccc3)c3ccccc32)C(=O)c2ccccc21 .
[A] No

====

- Test system: NCI-H23
- test-details: NCI tumour cell line growth inhibition, 48 h
Activity calls are given as the source filed them. No stated cut-off is given here; in the data, active = GI50 up to about 1.1 µM and inactive = higher.
# maps each entry to its GI50

Record excerpt, results attached:
- molecule: "c1ccc(CN2CCC3(CC2)SSC2(CCN(Cc4ccccc4)CC2)S3)cc1"
  GI50: "30.1 µM (inactive)"
- molecule: "CCC12CCC(O)C1N(C)CCC2Sc1ccccc1 (stereo not given)"
  GI50: "> 100 µM (inactive)"

Then there is this molecule:
[Q] Quick check: GI50 of CC1CC(=O)N2CCCNC2=C1C#N (stereo not given) ?
[A] > 100 µM (inactive)

====

- Tested on: HT-29
- test-details: NCI tumour cell line growth inhibition, 48 h
Active and inactive are the calls of the source. No stated cut-off is given here; in the data, active = GI50 up to about 1.1 µM and inactive = higher.
test-readout: GI50

// known answers, use as guide
- molecule: "C1=C(c2ccccc2)SC(N2CCCCC2)S1 (configuration not stated)"
  GI50: "> 100 µM (inactive)"
- molecule: "C=CCn1c2c(sc1=S)C(S)NC=N2 (configuration not stated)"
  GI50: "> 100 µM (inactive)"
- molecule: "CN(C)Cc1cc(C(C)(C)C)cc(C2CCCCC2)c1O"
  GI50: "2.86 µM (inactive)"
- molecule: "COC(=O)c1cc(CC(C)C)c2c(c1)[nH]c1ccccc12"
  GI50: "> 100 µM (inactive)"
- molecule: "Cc1cccc(N(CCC#N)S(=O)(=O)c2ccccc2)c1"
  GI50: "> 100 µM (inactive)"

[Q] Bench note: what GI50 did Cc1cc(C)c2c(=O)cc(-c3ccccc3)[nH]c2c1 show?
[A] 1.17 µM (inactive)

[Q] # get_value(readout='GI50', item= COC(=O)[C@@H]1CCc2nc3ccccc3c(=O)n21 )
[A] > 100 µM (inactive)

====

This listing pairs molecules with measured GI50.
- Tested on: SF-268
- test-details: NCI tumour cell line growth inhibition, 48 h
Calls of active or inactive are those of the source. Rule as the data show it: active = GI50 up to about 1.1 µM and inactive = higher.

Would you please look over these solved cases?
- molecule: "C=C1C(=O)OC2/C=C(\\C=O)CC/C=C(\\C)C(O)C[C@@H]12 (stereo partly specified)"
  target-or-system: "SF-268"
  GI50: "8.61 µM (inactive)"
- molecule: "CC1CC(=O)N2CCCNC2=C1C#N (stereo unspecified)"
  target-or-system: "SF-268"
  GI50: "> 100 µM (inactive)"

Okay, next one:
[Q] Lab note: need GI50 with SF-268 for entry O=C(/C=C/c1ccc(Cl)cc1)Oc1ccc(C=C2CCC/C(=C\c3ccc(OC(=O)/C=C/c4ccc(Cl)cc4)cc3)C2=O)cc1 , please look it up.
[A] > 100 µM (inactive)
